# credit: paper PMC12360161

- STUDY SYSTEM: T1, full-length (FL) human 14-3-3γ protein (human, UniProt P61981 1-247)
- T1 construct: 14-3-3 gamma, human, full length; also called 14-3-3γ FL
- T1 sequence (looked up): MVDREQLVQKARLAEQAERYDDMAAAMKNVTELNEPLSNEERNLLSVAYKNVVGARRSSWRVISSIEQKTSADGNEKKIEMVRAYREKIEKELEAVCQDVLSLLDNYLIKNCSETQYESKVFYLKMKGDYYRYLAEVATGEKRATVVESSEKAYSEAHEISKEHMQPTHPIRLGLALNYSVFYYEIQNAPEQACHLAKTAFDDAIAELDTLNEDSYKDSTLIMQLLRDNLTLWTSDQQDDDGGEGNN
- TEST: fluorescence polarisation; fluorescence anisotropy; dilution series of 14-3-3γ (starting at 500 μM) to 10 nM FAM-labeled peptide; 10 mM HEPES pH 7.4, 150 mM NaCl, 0.1% Tween20, 1 mg/mL BSA; room temperature; Hill fit; triplicates
- TEST SETTINGS: both partners purified
pKd: −log10 of the molar value. Where no end group is shown, it is not given here. [ ]: non-standard residue; d: D form. pT = C[C@@H](OP(=O)(O)O)[C@H](N)C(=O)O; pS = N[C@@H](COP(=O)(O)O)C(=O)O
Reported pKd values for the following binders.
MEASURED PROPERTY: pKd

>>> recorded_value("GSRSRTP[pS]LPTPPTR [Tau-pS214 peptide]")
4.79
>>> recorded_value("SAKSRLQ[pT]APVPMPD-NH2 (not fully specified (N-terminus), Tau, seven residues before and after phosphosite 245; numbers count on: P10636-8; source: synthetic peptide, bought: GenScript) [Tau pT245 peptide (peptide 2), FAM-labelled]")
5.07
